Target: EGFR (HCC827 cells) (Homo sapiens, UniProt P00533, DEL746-750)
Construct: endogenous in cells; host or cells: HCC827
Sequence (P00533 with tags, fused parts or gaps DEL746-750): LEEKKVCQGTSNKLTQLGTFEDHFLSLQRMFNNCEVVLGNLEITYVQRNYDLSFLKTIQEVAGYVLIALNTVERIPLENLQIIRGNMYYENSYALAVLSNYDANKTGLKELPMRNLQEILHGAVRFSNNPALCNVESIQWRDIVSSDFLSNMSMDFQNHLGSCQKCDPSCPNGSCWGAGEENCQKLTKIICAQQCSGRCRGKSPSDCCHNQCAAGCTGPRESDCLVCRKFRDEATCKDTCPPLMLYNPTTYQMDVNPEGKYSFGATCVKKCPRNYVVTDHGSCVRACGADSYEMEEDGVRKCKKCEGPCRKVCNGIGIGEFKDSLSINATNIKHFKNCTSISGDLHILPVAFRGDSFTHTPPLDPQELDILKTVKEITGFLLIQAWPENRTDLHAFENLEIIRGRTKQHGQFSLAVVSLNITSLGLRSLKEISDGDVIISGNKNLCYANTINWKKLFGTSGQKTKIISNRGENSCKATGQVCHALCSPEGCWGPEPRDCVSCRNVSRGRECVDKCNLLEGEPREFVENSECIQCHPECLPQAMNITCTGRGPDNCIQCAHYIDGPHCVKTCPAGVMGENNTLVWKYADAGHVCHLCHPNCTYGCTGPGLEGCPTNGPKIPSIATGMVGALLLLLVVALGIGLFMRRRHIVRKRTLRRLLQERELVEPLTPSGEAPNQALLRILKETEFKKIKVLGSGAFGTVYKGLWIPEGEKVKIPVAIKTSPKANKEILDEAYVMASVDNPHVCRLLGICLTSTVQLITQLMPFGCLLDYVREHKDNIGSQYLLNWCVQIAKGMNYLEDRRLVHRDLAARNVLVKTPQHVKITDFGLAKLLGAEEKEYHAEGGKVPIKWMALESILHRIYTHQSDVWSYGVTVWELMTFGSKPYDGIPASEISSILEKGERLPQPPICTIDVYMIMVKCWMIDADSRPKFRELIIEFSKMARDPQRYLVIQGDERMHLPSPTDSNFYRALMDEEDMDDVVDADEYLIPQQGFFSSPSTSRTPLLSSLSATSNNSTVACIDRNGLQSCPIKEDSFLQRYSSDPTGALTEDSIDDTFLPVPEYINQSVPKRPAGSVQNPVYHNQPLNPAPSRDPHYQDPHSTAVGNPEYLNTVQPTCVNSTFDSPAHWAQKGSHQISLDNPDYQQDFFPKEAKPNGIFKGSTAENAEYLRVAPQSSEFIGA
Assay: EGFR degradation HTRF assay, HCC827 cells
Format: cell-based
Settings: HCC827, 16h treatment
EXPERIMENTAL ENDPOINT: DC50 (nM)

CCc1cc(Nc2ncc(Br)c(Nc3ccc4nccnc4c3P(C)(C)=O)n2)c(OC)cc1N1CCC(N2CCN(C(=O)C3CCN(c4cc(F)c(C5CCC(=O)NC5=O)c(F)c4)CC3)CC2)CC1 (centres unmarked) = 3.14
COc1cc(N2CCC(N(C)CCc3ccc(C4CCC(=O)NC4=O)cc3)CC2)c(C)cc1Nc1ncc(Br)c(Nc2ccc3nccnc3c2P(C)(C)=O)n1 (centres unmarked) = 50.6
CCc1cc(Nc2ncc(Br)c(Nc3ccc4nccnc4c3P(C)(C)=O)n2)c(OC)cc1N1CCC(N2CCN(C(=O)CCN3CCN(c4ccc5c(c4)C(=O)N(C4CCC(=O)NC4=O)C5=O)CC3)CC2)CC1 (centres unmarked) = 2.84
CCc1cc(Nc2ncc(Br)c(Nc3ccc4nccnc4c3P(C)(C)=O)n2)c(OC)cc1N1CCC(N2CCN(CCC3CCN(c4ccc(N5CCC(=O)NC5=O)cc4)CC3)CC2)CC1 = 313
COc1cc(N2CCC(N3CCN(CCC4CCN(c5ccc(N6CCC(=O)NC6=O)cc5)CC4)CC3)CC2)ccc1Nc1ncc(Cl)c(Nc2ccccc2NS(C)(=O)=O)n1 = 53.6

----------
Test system: EGFR Del19/T790M/C797S (BaF3-DTC cells)
Test: EGFR degradation HTRF assay, BaF3-DTC cells
Type: cell-based
Conditions: 16h treatment, maximum percentage of degradation
Catalogue of DTC Dmax (%) readings, one per entry.
EXPERIMENTAL ENDPOINT: DTC Dmax (%)

CCc1cc(Nc2ncc(Br)c(Nc3ccc4nc(C(F)(F)F)ccc4c3P(C)(C)=O)n2)c(OC)cc1N1CCC(N2CCN(CCC3CCN(c4cc(F)c(C5CCC(=O)NC5=O)c(F)c4)CC3)CC2)CC1 (stereo not drawn) [Example 437] = 83.88
CCc1cc(Nc2ncc(Br)c(Nc3ccc4nc(C)ccc4c3P(C)(C)=O)n2)c(OC)cc1N1CCC(N2CCN(CCc3ccc4nn(C5CCC(=O)NC5=O)cc4c3)CC2)CC1 (stereo not drawn) [Example 257] = 93.75
CCc1cc(Nc2ncc(Br)c(Nc3ccc4nccnc4c3P(C)(C)=O)n2)c(OC)cc1N1CCC(N2CCN(C(=O)C3CCN(c4ccc5c(c4)C(C)(C)C(=O)N5C4CCC(=O)NC4=O)CC3)CC2)CC1 (stereo not drawn) [Example 219] = 93

----------
Test system: EGFR Del19/T790M/C797S (H1975-clone #28)
Experiment: EGFR degradation HTRF assay, H1975-clone #28 DTC cells
Type: cell-based
Details: H1975 # 28 DTC cells; maximum percentage of inhibition (degradation)
EXPERIMENTAL ENDPOINT: Dmax (%) H1975 # 28 DTC

CCOc1cc(N2CCC(N3CCN(CCCc4cccc5c4oc(=O)n5C4CCC(=O)NC4=O)CC3)CC2)c(CC)cc1Nc1ncc(Br)c(Nc2ccc3nc(CC)ncc3c2P(C)(C)=O)n1 (centres unmarked) = 72.36
CCOc1cc(N2CCC(N3CCN(CCN(C)c4cccc5c4oc(=O)n5C4CCC(=O)NC4=O)CC3)CC2)c(CC)cc1Nc1ncc(Br)c(Nc2cc(F)c3nc(CC)ccc3c2P(C)(C)=O)n1 (centres unmarked) = 69.1
CCc1cc(Nc2ncc(Br)c(Nc3ccc4cc(C)ncc4c3P(C)(C)=O)n2)c(OC)cc1N1CCC(N2CCN(C(=O)[C@@H]3CCN(c4cc(F)c([C@H]5CCC(=O)NC5=O)c(F)c4)C3)CC2)CC1 = 84.73
CCc1cc(Nc2ncc(Br)c(Nc3cc(F)c4nc(C)ccc4c3P(C)(C)=O)n2)c(OC)cc1N1CCC(N2CCN(CCc3cc(F)c([C@H]4CCC(=O)NC4=O)c(F)c3)CC2)CC1 = 67.2
CCOc1cc(N2CCC(N3CCN(CCc4ccc(F)c5c4oc(=O)n5C4CCC(=O)NC4=O)CC3)CC2)c(CC)cc1Nc1ncc(Br)c(Nc2ccc3nc(CC)ccc3c2P(C)(C)=O)n1 (centres unmarked) = 77.6

----------
System: EGFR Del19/T790M/C797S (H1975-clone #28)
Assay: EGFR degradation HTRF assay, H1975-clone #28 DTC cells
Format: cell-based
Conditions: H1975 # 28 DTC cells; maximum percentage of inhibition (degradation)
EXPERIMENTAL ENDPOINT: Dmax (%) H1975 # 28 DTC

CCc1cc(Nc2ncc(Br)c(Nc3ccc4nc(C)ccc4c3P(C)(C)=O)n2)c(OC2CC2)cc1N1CCC(N2CCN(C(=O)[C@@H]3CCN(c4cc(F)c([C@H]5CCC(=O)NC5=O)c(F)c4)C3)CC2)CC1 [Example 544] = 81.13
CCOc1cc(N2CCC(N3CCN(CCc4cc5oc(=O)n(C6CCC(=O)NC6=O)c5cc4C)CC3)CC2)c(CC)cc1Nc1ncc(Br)c(Nc2cc(F)c3nc(CC)ccc3c2P(C)(C)=O)n1 (stereo not shown) [Example 553] = 61.54
CCOc1cc(N2CCC(N3CCN(CCc4cccc5c4oc(=O)n5C4CCC(=O)NC4=O)CC3)CC2)c(CC)cc1Nc1ncc(Br)c(Nc2ccc3c(=O)n(CC)ncc3c2P(C)(C)=O)n1 (stereo not shown) [Example 455] = 79.19
CCOc1cc(N2CCC(N3CCN(CCc4cc(F)c(F)c5c4oc(=O)n5C4CCC(=O)NC4=O)CC3)CC2)c(CC)cc1Nc1ncc(Br)c(Nc2ccc3nc(CC)ccc3c2P(C)(C)=O)n1 (stereo not shown) [Example 474] = 73.43
CCOc1cc(N2CCC(N3CCN(CCc4ccc5c(c4)oc(=O)n5C4CCC(=O)NC4=O)CC3)CC2)c(CC)cc1Nc1ncc(Br)c(Nc2ccc3nc(CC)ccc3c2P(C)(C)=O)n1 (stereo not shown) [Example 463] = 82.73
CCc1ccc2c(P(C)(C)=O)c(Nc3nc(Nc4cc(CC)c(N5CCC(N6CCN(C(=O)[C@@H]7CCN(c8cc(F)c(C9CCC(=O)NC9=O)c(F)c8)C7)CC6)CC5)cc4OC)ncc3Br)ccc2n1 (stereo partly shown) [Example 515] = 66.35
CCc1ccc2c(P(C)(C)=O)c(Nc3nc(Nc4cc(CC)c(N5CCC(N6CCN(CCCc7ccc8c(c7)oc(=O)n8C7CCC(=O)NC7=O)CC6)CC5)cc4OC)ncc3Br)ccc2n1 (stereo not shown) [Example 456] = 71.36
CCOc1cc(N2CCC(N3CCN(CCc4cccc5c4C4(CC4)C(=O)N5C4CCC(=O)NC4=O)CC3)CC2)c(CC)cc1Nc1ncc(Br)c(Nc2ccc3nc(CC)ccc3c2P(C)(C)=O)n1 (stereo not shown) [Example 571] = 77.08
CCc1ccc2c(P(C)(C)=O)c(Nc3nc(Nc4cc(CC)c(N5CCC(N6CCN(CC[C@H]7CCN(c8cc(F)c(C9CCC(=O)NC9=O)c(F)c8)C7)CC6)CC5)cc4OC)ncc3Br)ccc2n1 (stereo partly shown) [Example 650] = 59.93
CCOc1ccc2c(P(C)(C)=O)c(Nc3nc(Nc4cc(CC)c(N5CCC(N6CCN(C(=O)[C@@H]7CCN(c8cc(F)c([C@H]9CCC(=O)NC9=O)c(F)c8)C7)CC6)CC5)cc4OC)ncc3Br)ccc2n1 [Example 677] = 77.05

----------
Molecular target: EGFR L858R/T790M/C797S (BaF3-LTC cells) (Homo sapiens, UniProt P00533, C797S/L858R/T790M)
Construct: expressed in transfected cells; host or cells: BaF3
Sequence (P00533 25-1210 T790M/C797S/L858R): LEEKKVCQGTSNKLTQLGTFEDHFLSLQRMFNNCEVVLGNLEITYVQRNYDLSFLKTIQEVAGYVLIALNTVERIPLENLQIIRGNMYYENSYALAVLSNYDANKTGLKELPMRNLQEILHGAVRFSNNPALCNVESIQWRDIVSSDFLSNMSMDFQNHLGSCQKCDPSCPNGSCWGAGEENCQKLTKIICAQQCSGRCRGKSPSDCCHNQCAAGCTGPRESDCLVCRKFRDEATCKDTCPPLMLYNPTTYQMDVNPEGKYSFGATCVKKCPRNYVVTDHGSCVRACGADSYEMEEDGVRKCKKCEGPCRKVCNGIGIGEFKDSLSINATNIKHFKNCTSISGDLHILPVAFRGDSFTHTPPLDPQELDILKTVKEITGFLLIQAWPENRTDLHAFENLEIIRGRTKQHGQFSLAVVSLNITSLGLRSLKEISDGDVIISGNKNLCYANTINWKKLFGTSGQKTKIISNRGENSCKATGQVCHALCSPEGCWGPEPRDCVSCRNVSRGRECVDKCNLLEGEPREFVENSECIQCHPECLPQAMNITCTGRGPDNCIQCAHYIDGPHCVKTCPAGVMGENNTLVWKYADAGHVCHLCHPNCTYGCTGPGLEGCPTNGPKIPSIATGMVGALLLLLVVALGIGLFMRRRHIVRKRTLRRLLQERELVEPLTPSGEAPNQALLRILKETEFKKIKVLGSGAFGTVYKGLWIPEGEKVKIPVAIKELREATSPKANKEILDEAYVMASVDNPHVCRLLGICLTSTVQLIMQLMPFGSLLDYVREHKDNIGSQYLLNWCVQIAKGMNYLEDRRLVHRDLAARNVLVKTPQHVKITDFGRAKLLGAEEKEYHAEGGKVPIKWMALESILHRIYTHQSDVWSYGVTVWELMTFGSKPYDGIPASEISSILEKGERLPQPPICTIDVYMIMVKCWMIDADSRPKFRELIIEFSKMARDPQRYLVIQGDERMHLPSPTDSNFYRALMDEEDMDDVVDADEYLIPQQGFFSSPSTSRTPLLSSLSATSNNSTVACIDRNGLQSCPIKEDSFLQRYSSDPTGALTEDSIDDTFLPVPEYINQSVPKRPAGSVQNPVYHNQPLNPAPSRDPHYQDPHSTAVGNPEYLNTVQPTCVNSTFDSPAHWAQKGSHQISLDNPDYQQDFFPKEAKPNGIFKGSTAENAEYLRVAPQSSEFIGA
Assay: EGFR degradation HTRF assay, BaF3-LTC cells
Assay type: cell-based
Conditions: BaF3-LTC cells; EGFR degradation, IC50 (DC50) from curve fit; read-out: DC50(nM) BaF3-LTC
# note: exactly 20 nM is not below, so it is FALSE; use TRUE for DC50 strictly under it

CCc1cc(Nc2ncc(Br)c(Nc3ccc4nc(C)ccc4c3P(C)(C)=O)n2)c(OC)cc1N1CCC(N2CCN(CCC3CCN(c4cc(F)c(C5CCC(=O)NC5=O)c(F)c4)CC3)C(=O)C2)CC1 (stereo not shown) [Example 695] = TRUE
CCc1cc(Nc2ncc(Br)c(Nc3ccc4nc(C)ccc4c3P(C)(C)=O)n2)c(OC)cc1N1CCC(N2CCN(C(=O)Cc3cc(F)c([C@H]4CCC(=O)NC4=O)c(F)c3)CC2)CC1 [Example 670] = TRUE
CCOc1cc(N2CCC(N3CCN(CCc4cc(F)c([C@H]5CCC(=O)NC5=O)c(F)c4)[C@H](CO)C3)CC2)c(CC)cc1Nc1ncc(Br)c(Nc2ccc3nc(CC)ccc3c2P(C)(C)=O)n1 [Example 657] = TRUE
CCOc1cc(N2CCC(N3CCN(CCc4cc(F)c(F)c5c4n(CC)c(=O)n5C4CCC(=O)NC4=O)CC3)CC2)c(CC)cc1Nc1ncc(Br)c(Nc2ccc3c(=O)n(CC)ncc3c2P(C)(C)=O)n1 (stereo not shown) [Example 743] = FALSE
CCc1cc(Nc2ncc(Br)c(Nc3ccc4nc(C)c(F)cc4c3P(C)(C)=O)n2)c(OC)cc1N1CCC(N2CCN(C(=O)[C@H]3CN(c4cc(F)c([C@H]5CCC(=O)NC5=O)c(F)c4)CC3(C)C)CC2)CC1 [Example 576] = TRUE
CCOc1cc(N2CCC(N3CCN(CCc4cc(F)cc5c4n(C)c(=O)n5C4CCC(=O)NC4=O)CC3)CC2)c(CC)cc1Nc1ncc(Br)c(Nc2ccc3nc(CC)ccc3c2P(C)(C)=O)n1 (stereo not shown) [Example 462] = TRUE
CCOc1cc(N2CCC(N3CCN(C[C@H]4CCN(c5cccc6c5oc(=O)n6C5CCC(=O)NC5=O)C4)CC3)CC2)c(CC)cc1Nc1ncc(Br)c(Nc2ccc3c(=O)n(CC)ncc3c2P(C)(C)=O)n1 (stereo partly shown) [Example 560] = TRUE
CCOc1cc(N2CCC(N3CCN(CCc4c(F)cc5c(oc(=O)n5C5CCC(=O)NC5=O)c4C)CC3)CC2)c(CC)cc1Nc1ncc(Br)c(Nc2ccc3c(=O)n(CC)ncc3c2P(C)(C)=O)n1 (stereo not shown) [Example 613] = TRUE
CCc1ccc2c(P(C)(C)=O)c(Nc3nc(Nc4cc(C)c(N5CCC(N6CCN(C(=O)[C@@H]7CCN(c8cc(F)c([C@H]9CCC(=O)NC9=O)c(F)c8)C7)CC6)CC5)cc4OC)ncc3Br)ccc2n1 [Example 539] = TRUE
CCOc1cc(N2CCC(N3CCN(CCc4ccc(C)c5c4oc(=O)n5C4CCC(=O)NC4=O)CC3)CC2)c(CC)cc1Nc1ncc(Br)c(Nc2ccc3nc(CC)ccc3c2P(C)(C)=O)n1 (stereo not shown) [Example 470] = FALSE
